Source listed as patent US9487545B2.

# Tested on: streptococcus pneumoniae
# assay: In vitro antibacterial activity, standard agar dilution method, Streptococcus pneumoniae
# Format: cell-based
# experimental_context: clinically separated strains
property_measured: Antibiotic Activity MIC Streptococcus pneumoniae (µg/mL)
Give the quantity in µg/mL, number only.

Lookup result for CC(=O)NC[C@H]1CN(c2ccc(-c3ccc4c(c3)CN(c3cnn[nH]3)C4)c(F)c2)C(=O)O1 [Compound 4] ; measured Antibiotic Activity MIC Streptococcus pneumoniae: 0.5

The recorded Antibiotic Activity MIC Streptococcus pneumoniae for entry CC(=O)NC[C@H]1CN(c2ccc(-c3ccc4c(c3)CN(c3nnn(C)n3)C4)c(F)c2)C(=O)O1 [Compound 2] equals 0.5

Reported Antibiotic Activity MIC Streptococcus pneumoniae ( Cn1nnnc1N1Cc2ccc(-c3ccc(N4C[C@H](CO)OC4=O)cc3F)cc2C1 [Compound 19] ) = 1
